Attribution: patent US20260200920A1

target: human recombinant kinase full-length AKT1 E17K (Homo sapiens, UniProt P31749, E17K); construct: Purified human recombinant kinase full-length AKT1 E17K was expressed in insect cells; assay: AKT1 E17K kinase assay (TR-FRET, Lance); conditions: 0.6 nM AKT1 E17K, 50 nM Ulight-CREBtide, either 50 μM ATP or 2 mM ATP, 60 min at RT
Sequence (P31749 whole entry E17K): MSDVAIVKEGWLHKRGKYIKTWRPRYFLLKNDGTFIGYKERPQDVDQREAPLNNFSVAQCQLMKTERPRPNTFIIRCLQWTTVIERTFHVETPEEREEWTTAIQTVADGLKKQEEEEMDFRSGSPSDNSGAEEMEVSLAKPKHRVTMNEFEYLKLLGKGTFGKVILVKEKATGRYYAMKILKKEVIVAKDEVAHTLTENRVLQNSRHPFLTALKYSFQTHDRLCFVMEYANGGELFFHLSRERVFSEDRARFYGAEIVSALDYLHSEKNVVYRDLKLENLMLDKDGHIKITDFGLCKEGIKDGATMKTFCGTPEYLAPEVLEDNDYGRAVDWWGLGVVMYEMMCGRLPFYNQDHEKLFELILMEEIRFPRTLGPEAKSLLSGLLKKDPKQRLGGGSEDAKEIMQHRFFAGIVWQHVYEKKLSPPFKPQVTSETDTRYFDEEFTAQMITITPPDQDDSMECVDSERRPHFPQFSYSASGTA
pIC50: −log10 of the molar value.
Entries and their pIC50

molecule	targetOrSystem	recordedMeasurement
Nc1ncccc1-c1nc2ccc(C3CCCC3)nc2n1-c1ccc(NC(=O)[C@H]2CC[C@H](C(=O)O)CC2)nc1	human recombinant kinase full-length AKT1 E17K (Homo sapiens, UniProt P31749, E17K)	5.70 to 6.30
Cc1nc(N[C@H]2CC[C@@H](C(=O)O)CC2)ccc1-n1c(-c2cccnc2N)nc2ccc(-c3ccccc3)nc21	human recombinant kinase full-length AKT1 E17K (Homo sapiens, UniProt P31749, E17K)	5.70 to 6.30
Nc1ncccc1-c1nc2ccc(-c3ccccc3)nc2n1-c1ccc(NC[C@H]2CC[C@H](C(=O)O)CC2)nc1	human recombinant kinase full-length AKT1 E17K (Homo sapiens, UniProt P31749, E17K)	> 6.30

Enquiry: Fill blank: measured pIC50 of the molecule Cc1cc(CN2CCC(C(C)(C)C(=O)O)C2)ccc1-n1c(-c2cccnc2N)nc2ccc(-c3ccccc3)nc21 (centres unmarked) is ____.
Return: ≤ 5.70
